measurement_target: COX-1 (Sus scrofa, UniProt A0A287ANF9)
Construct: A platelet suspension obtained from pig's blood is preincubated with the test substance; endogenous in cells; host or cells: platelets from pig's blood
Sequence (A0A287ANF9 25-600): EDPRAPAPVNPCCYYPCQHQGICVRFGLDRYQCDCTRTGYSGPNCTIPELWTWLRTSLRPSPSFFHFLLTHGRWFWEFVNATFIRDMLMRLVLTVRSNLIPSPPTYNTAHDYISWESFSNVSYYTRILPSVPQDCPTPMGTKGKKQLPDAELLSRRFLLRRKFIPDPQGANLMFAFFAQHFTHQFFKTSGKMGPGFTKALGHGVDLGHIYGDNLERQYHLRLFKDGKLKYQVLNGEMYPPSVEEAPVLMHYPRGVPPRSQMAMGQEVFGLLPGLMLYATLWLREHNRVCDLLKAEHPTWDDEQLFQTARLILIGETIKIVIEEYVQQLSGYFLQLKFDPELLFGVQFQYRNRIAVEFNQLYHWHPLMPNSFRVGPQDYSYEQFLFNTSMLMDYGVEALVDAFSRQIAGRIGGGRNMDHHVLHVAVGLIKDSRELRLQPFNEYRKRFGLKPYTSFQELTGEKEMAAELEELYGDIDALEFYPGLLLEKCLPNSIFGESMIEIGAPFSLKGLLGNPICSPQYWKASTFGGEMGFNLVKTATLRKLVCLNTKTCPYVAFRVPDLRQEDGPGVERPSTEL
procedure_text: In-vitro test for COX-1 inhibition: fluorimetric quantification of malonaldehyde (MDA) in A23187-activated pig platelet suspension
Format: cell-based
condition_parameters: Table 7, arylamides; pig platelets; read-out: MDA IC50
quantity_name: pIC50
One number for each entry, as −log10 of the molar value.

COc1ccc(-c2nc(SCCNC(=O)c3cc(OC)c(OC)c(OC)c3)[nH]c2-c2ccc(OC)cc2)cc1 [Compound T46]; 6.19
COc1ccc(-c2nc(SCCNC(=O)c3cc(C(F)(F)F)cc(C(F)(F)F)c3)[nH]c2-c2ccc(OC)cc2)cc1 [Compound T44]; 6.28
O=C(NCCSc1nc(-c2ccc(Cl)cc2)c(-c2ccccc2)[nH]1)c1ccccc1 [Compound T106]; 6.05

Would you be so kind as to report pIC50 for each listed record?
1. COc1ccc(-c2nc(SCCNC(=O)c3ccc([N+](=O)[O-])cc3)[nH]c2-c2ccc(OC)cc2)cc1 [Compound T40]
2. COc1ccc(-c2nc(SCCNC(=O)c3cc(Cl)cc(Cl)c3)[nH]c2-c2ccc(OC)cc2)cc1 [Compound T37]
3. O=C(NCCSc1nc(-c2ccc(Cl)cc2)c(-c2ccc(Cl)cc2)[nH]1)c1ccccc1 [Compound T85]
4. COc1ccc(-c2nc(SCCNC(=O)c3ccccc3)[nH]c2-c2ccc(OC)cc2)cc1 [Compound T28]

# output
7.09
6.28
6.35
6.27
